The values you see were collected from the METLIN SMRT retention time set (Domingo-Almenara et al. 2019).

- method.summary: gradient 5% acetonitrile 3 min, to 50% in 2 min, to 85% in 15 min, held 3 min, 100 µL/min
- test.settings: column: Zorbax Extend-C18 2.1 x 50 mm; eluents: water / acetonitrile, 0.1% formic acid

- compound: "Cc1ccc2c(c1)N(S(C)(=O)=O)CCC(C(=O)Nc1cccc(F)c1)O2 (stereo not given)"
  RP-LC retention time / s: 973
- compound: "Cc1ccc(NC(=O)C2CC(=O)N(CCc3c[nH]c4ccc(C)cc34)C2)cc1 (stereo not given)"
  RP-LC retention time / s: 843
- compound: "COc1ccccc1-c1noc(CN2C(=O)COc3ccccc32)n1"
  RP-LC retention time / s: 880
- compound: "Cn1nnc2c(SCc3c(F)cccc3Cl)ncnc21"
  RP-LC retention time / s: 933
- compound: "O=C(Cc1c(F)cccc1Cl)Nc1nc2c(s1)CN(S(=O)(=O)c1ccccc1)CC2"
  RP-LC retention time / s: 950
- compound: "COc1cc(NC(=O)NCCc2nc3cccnc3n2C2CCCCC2)cc(OC)c1OC"
  RP-LC retention time / s: 693
- compound: "Cn1ncc(N2CCCC(C(=O)Nc3ccc4c(c3)CCC4)C2)cc1=O (stereo not given)"
  RP-LC retention time / s: 786
- compound: "CN(C)S(=O)(=O)Nc1cccc(Br)c1"
  RP-LC retention time / s: 898
- compound: "Cn1c(=O)sc2cc(S(=O)(=O)N3CCC(C(=O)Nc4ccc5c(c4)OCCO5)CC3)ccc21"
  RP-LC retention time / s: 812
- compound: "CN1C(=O)c2cccnc2Sc2cc(NC(=O)c3ccccc3C(F)(F)F)ccc21"
  RP-LC retention time / s: 799

====

- method.summary: gradient 5% acetonitrile 3 min, to 50% in 2 min, to 85% in 15 min, held 3 min, 100 µL/min
- test.settings: column: Zorbax Extend-C18 2.1 x 50 mm; eluents: water / acetonitrile, 0.1% formic acid
// map RP-LC retention time onto a label; ranges low (below 700 s), mid (700 s to below 900 s), high (900 s or more)

- compound: "O=C(Cc1cccs1)NC1CCN(c2cc(-c3ccccc3)[nH]n2)C1 (stereo unspecified)"
  discrete.label: "low"
- compound: "CCC(C)NC(=O)c1ccc(-c2csc(C)n2)cc1 (stereo unspecified)"
  discrete.label: "mid"
- compound: "COC(=O)CCNC(=O)C1c2ccccc2C(=O)N(Cc2ccccc2)C12CCCC2 (stereo unspecified)"
  discrete.label: "mid"
- compound: "CCN1CCn2cc(C(=O)NCc3cc(C)ccc3C)nc2C1"
  discrete.label: "low"
- compound: "Cc1ccc2c(c1)N(C(=O)Cn1ccn3nc(-c4ccc(F)cc4)c(CO)c3c1=O)CCO2"
  discrete.label: "high"
- compound: "CCOC(=O)C1=C(CN2CCN(c3ccccn3)CC2)NC(=O)NC1c1ccccc1 (stereo unspecified)"
  discrete.label: "low"
- compound: "CCOc1ccccc1-c1nc(-c2ccc3ncn(C)c3c2)no1"
  discrete.label: "mid"
- compound: "CCc1noc(NC(C)=O)c1-c1ccc(C)c(S(=O)(=O)Nc2ccc(OC)cc2OC)c1"
  discrete.label: "mid"
- compound: "O=C(NCc1cccs1)NCC1(CO)CC1"
  discrete.label: "low"
- compound: "Cc1cccc(NC(=O)Cn2ccc3ccn(C)c3c2=O)c1C"
  discrete.label: "mid"
- compound: "CCC(C)NC(=O)c1cc(-c2cccs2)nc2onc(C)c12 (stereo unspecified)"
  discrete.label: "high"
- compound: "Cc1ccc(NC(=O)Cn2c(=O)cc(-c3nc(C4CC4)no3)c3ccccc32)cc1F"
  discrete.label: "high"
